- testDetails: NPH-insulin crystallisation in the presence of ligand (co-crystallisation)
- Format: physicochemical
- experimentalContext: human insulin NPH crystals grown overnight with ligand equimolar to Zn2+, pH 7.3
valueKind: NPH-insulin crystal size

Before answering, review these 3 worked examples.
compound: O=C1NC(=O)C(Cc2cccc3ccccc23)S1 (stereo not drawn)
NPH-insulin crystal size: 2 μ

compound: Cc1[nH]c2ccccc2c1/C=C1\SC(=O)NC1=O
NPH-insulin crystal size: 2-6 μ

compound: O=C(O)c1ccc(Cn2c3ccccc3c3cc(-c4nnn[nH]4)ccc32)cc1
NPH-insulin crystal size: <2 μ

The compound O=C(O)c1cc2cc(Br)ccc2cc1O [7-Bromo-3-hydroxy-2-napthoic acid] showed NPH-insulin crystal size equal to 5-20 μ

The compound c1ccc(Cn2c3ccccc3c3cc(-c4nnn[nH]4)ccc32)cc1 showed NPH-insulin crystal size equal to 1-3 μ

The compound c1ccc(-c2ccc(Cn3ccc4cc(-c5nnn[nH]5)ccc43)cc2)cc1 showed NPH-insulin crystal size equal to <2 μ

The compound O=C(O)COc1ccc(/C=C2\SC(=O)NC2=O)c2ccccc12 showed NPH-insulin crystal size equal to 2-10 μ

The compound O=C1NC(=O)/C(=C/c2cccc3ccccc23)S1 showed NPH-insulin crystal size equal to 4-10 μ

The compound Cc1cc(/C=C2\SC(=O)NC2=O)c(C)c2c1[nH]c1ccccc12 showed NPH-insulin crystal size equal to <2 μ
